Catalogue of growth inhibition readings, one per entry.
- procedure-details: NCI Yeast Anticancer Drug Screen. Data for the rad52 strain (AID 147);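 further: 0% = growth of vehicle-treated control cultures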
- condition-details: S. cerevisiae rad52 mutant growth inhibition; at 3.7 µM; active compounds read high
About 79,000 compounds went through this panel and 15% of them were active in at least one assay; those are over-represented in the sample as a whole.
Only the number, expressed in %, is required.

So what's the measured growth inhibition for this one? CC(C)=CC(=O)O[C@@H]1CC(C)(C)CC2C3=CCC4[C@]56CC[C@](O)(OC5)C(C)(C)C6CC[C@@]4(C)C3(C)CC[C@]21C(=O)O (stereo not given in full)
37

What does the data say about its growth inhibition? Entry: CCCCc1cc(O)ccc1O
13

Consider the molecule COc1cc(/C=C2\CCc3ccccc3C2=O)cc(OC)c1OC and give its measured growth inhibition.
-3

Look up growth inhibition for this molecule: CC(=O)Oc1ccc2c(c1)Cc1cc(N=C3C=CC(=O)O3)ccc1-2
41

Give the measured growth inhibition of O=C1C(=O)c2ccccc2C=C1[N+](=O)[O-] .
11

If you can, please state the reported growth inhibition value of CCCCCCCCNC(=O)C1=C(C)NC(C)=C(C(=O)NCCCCCCCC)C1 .
1

Endpoint output: growth inhibition of Cc1cc(S(=O)(=O)/N=C(/NN)NNc2cccc(C(F)(F)F)n2)c(S)cc1Cl . Value?
-1

# lookup: growth inhibition of OCC(Cn1cncn1)(c1ccc(F)cc1F)n1cncn1 (stereo not given)
57

Which growth inhibition value is on record for O=C(O)c1cccc(-c2c3ccc(=O)cc-3oc3cc(O)ccc23)c1 ?
26

# get_value(readout='growth inhibition', item= O=C1Nc2ccc(Cl)c(I)c2C1=O )
10

These entries and their values trace back to PubChem BioAssay (NCI).
